# EXPERIMENTAL_SYSTEM: c-MET (Homo sapiens)
# Sequence (P08581 25-1390): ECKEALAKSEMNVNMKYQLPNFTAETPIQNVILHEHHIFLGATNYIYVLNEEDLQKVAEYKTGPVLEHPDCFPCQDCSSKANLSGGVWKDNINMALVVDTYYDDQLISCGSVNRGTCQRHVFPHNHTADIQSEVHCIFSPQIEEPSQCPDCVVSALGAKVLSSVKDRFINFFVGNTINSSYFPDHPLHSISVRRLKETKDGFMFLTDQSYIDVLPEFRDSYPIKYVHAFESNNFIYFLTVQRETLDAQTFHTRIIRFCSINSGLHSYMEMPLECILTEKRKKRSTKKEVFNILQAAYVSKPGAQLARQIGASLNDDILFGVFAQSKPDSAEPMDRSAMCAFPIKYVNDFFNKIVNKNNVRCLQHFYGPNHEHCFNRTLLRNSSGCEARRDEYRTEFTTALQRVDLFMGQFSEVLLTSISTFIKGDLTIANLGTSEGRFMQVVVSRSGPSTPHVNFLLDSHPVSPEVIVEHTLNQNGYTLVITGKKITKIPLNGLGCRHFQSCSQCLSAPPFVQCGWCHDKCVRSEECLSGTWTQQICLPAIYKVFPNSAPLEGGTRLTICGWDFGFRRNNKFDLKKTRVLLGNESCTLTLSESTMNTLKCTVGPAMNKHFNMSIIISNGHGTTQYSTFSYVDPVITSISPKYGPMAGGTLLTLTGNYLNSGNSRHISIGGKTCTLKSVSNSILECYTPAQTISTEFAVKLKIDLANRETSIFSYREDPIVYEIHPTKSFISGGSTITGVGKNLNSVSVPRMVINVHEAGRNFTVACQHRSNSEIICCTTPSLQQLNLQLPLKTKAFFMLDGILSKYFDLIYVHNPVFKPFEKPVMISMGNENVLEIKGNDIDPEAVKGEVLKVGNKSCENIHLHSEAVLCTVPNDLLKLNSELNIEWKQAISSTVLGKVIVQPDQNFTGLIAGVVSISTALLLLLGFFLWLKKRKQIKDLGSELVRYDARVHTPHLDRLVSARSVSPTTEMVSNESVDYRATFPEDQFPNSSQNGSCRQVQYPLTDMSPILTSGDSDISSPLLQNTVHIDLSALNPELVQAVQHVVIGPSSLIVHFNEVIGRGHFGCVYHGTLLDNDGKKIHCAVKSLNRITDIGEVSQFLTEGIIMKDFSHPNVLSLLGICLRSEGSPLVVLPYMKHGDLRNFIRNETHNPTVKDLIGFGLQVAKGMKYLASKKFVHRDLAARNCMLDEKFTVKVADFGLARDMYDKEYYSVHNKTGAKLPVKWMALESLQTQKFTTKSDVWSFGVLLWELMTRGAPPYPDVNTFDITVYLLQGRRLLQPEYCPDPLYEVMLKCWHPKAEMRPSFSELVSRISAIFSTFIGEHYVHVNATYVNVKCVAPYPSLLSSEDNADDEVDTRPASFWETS
# TEST: c-MET protein degradation (Simple Western), MKN-45
# Assay type: cell-based
# Set-up: assess the resolution of the compound of the present invention for c-MET expressed in cells; endogenous in cells; host or cells: MKN45 (human gastric cancer)
# RECORDED_CONDITIONS: c-MET overexpressing gastric cancer cell line MKN-45, treated 24 hours; Table 2
Recorded DC50, one value per entry.
REPORTED_PROPERTY: DC50

1) N#Cc1cccc(-c2ccc(=O)n(Cc3cccc(-c4ncc(OCC5CCN(CCC(=O)N6CCN(c7ccc8c(=O)n(C9CCC(=O)NC9=O)ncc8c7)CC6)CC5)cn4)c3)n2)c1 (stereo not shown) [ICT-0001223]	< 100 nM
2) Cc1nn(C2CCC(=O)NC2=O)c(=O)c2ccc(NCCOCCOCC(=O)N3CCC(COc4cnc(-c5cccc(Cn6nc(-c7cccc(C#N)c7)ccc6=O)c5)nc4)CC3)cc12 (stereo not shown) [ICT-0001087]	< 100 nM
3) N#Cc1cccc(-c2ccc(=O)n(Cc3cccc(-c4ncc(OCC5CCN(CC(=O)N6CCN(c7ccc8c(=O)n(C9CCC(=O)NC9=O)ncc8c7)CC6)CC5)cn4)c3)n2)c1 (stereo not shown) [ICT-0001221]	< 100 nM
4) Cc1nn(C2CCC(=O)NC2=O)c(=O)c2cc(N3CCC(C(=O)NCCCNC(=O)CN4CCC(COc5cnc(-c6cccc(Cn7nc(-c8cccc(C#N)c8)ccc7=O)c6)nc5)CC4)CC3)ccc12 (stereo not shown) [ICT-0001238]	> 1000 nM
5) Cc1nn(C2CCC(=O)NC2=O)c(=O)c2cc(N3CCC(CN4CCN(C(=O)CN5CCC(COc6cnc(-c7cccc(Cn8nc(-c9cccc(C#N)c9)ccc8=O)c7)nc6)CC5)CC4)CC3)ccc12 (stereo not shown) [ICT-0001234]	> 1000 nM
6) Cc1nn(C2CCC(=O)NC2=O)c(=O)c2cc(N3CCC(CN4CCN(CC(=O)N5CCC(COc6cnc(-c7cccc(Cn8nc(-c9cccc(C#N)c9)ccc8=O)c7)nc6)CC5)CC4)CC3)ccc12 (stereo not shown) [ICT-0001239]	< 100 nM
7) Cc1nn(C2CCC(=O)NC2=O)c(=O)c2cc(N3CCN(C(=O)CCN4CCC(COc5cnc(-c6cccc(Cn7nc(-c8cccc(C#N)c8)ccc7=O)c6)nc5)CC4)CC3)ccc12 (stereo not shown) [ICT-0001.225]	< 100 nM
8) Cc1nn(C2CCC(=O)NC2=O)c(=O)c2ccc(N3CCN(CCCC(=O)N4CCC(COc5cnc(-c6cccc(Cn7nc(-c8cccc(C#N)c8)ccc7=O)c6)nc5)CC4)CC3)cc12 (stereo not shown) [ICT-0001175]	< 100 nM
9) Cc1nn(C2CCC(=O)NC2=O)c(=O)c2cc(N3CCN(C(=O)CCCCN4CCC(COc5cnc(-c6cccc(Cn7nc(-c8cccc(C#N)c8)ccc7=O)c6)nc5)CC4)CC3)ccc12 (stereo not shown) [ICT-0001251]	< 100 nM
10) N#Cc1cccc(-c2ccc(=O)n(Cc3cccc(-c4ncc(OCC5CCN(C(=O)CCN6CCN(c7ccc8c(=O)n(C9CCC(=O)NC9=O)ncc8c7)CC6)CC5)cn4)c3)n2)c1 (stereo not shown) [ICT-0001199]	< 100 nM
